# Target under test: full-length beta-Catenin (Uniprot ID P35222) (Homo sapiens)
# Construct: 10 nM full-length beta-Catenin (Uniprot ID P35222)
# Sequence (P35222 1-781): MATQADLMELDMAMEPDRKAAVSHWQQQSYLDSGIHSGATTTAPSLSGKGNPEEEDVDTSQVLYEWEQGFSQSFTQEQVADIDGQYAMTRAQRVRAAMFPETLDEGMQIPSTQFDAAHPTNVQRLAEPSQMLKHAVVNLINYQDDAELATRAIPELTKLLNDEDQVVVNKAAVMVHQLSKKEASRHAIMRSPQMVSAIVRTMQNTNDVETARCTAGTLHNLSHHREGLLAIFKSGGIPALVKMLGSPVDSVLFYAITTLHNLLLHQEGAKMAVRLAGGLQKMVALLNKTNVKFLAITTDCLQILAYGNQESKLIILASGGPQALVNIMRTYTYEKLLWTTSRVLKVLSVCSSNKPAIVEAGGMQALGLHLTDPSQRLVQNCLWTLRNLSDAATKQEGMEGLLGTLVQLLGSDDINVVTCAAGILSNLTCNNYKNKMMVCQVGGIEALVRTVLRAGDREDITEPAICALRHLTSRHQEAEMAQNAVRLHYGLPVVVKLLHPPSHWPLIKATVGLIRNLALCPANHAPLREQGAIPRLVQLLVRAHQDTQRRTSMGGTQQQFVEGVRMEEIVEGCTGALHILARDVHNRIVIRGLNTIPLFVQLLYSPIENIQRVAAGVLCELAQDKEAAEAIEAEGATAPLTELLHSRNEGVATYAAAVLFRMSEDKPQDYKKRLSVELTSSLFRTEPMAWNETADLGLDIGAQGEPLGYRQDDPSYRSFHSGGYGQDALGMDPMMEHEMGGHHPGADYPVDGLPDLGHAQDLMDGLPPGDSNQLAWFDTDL
# Assay comment: Fluorescence polarization IC50 (beta-catenin / 5FAM-TCF4 10-53 competition)
# Assay type: binding
# Experimental setup: fluorescence polarization; read-out: beta-Catenin FP IC50
# IC50 annotations
Measured property: IC50 (nM)

>>> observed("CCCC[C@@H]1NC(=O)[C@H](Cc2cccc(C(=O)O)c2)NC(=O)[C@H](CC(=O)O)NC(=O)C2(CCCC=CCCCOC(=O)N3CC[C@@](C(=O)N[C@@H](Cc4ccsc4)C(=O)N[C@@H](Cc4csc5ccccc45)C(=O)N[C@@H](C)C(N)=O)(C3)NC(=O)[C@H](CC(C)C)NC(=O)[C@H](Cc3ccccc3)NC(=O)[C@H](C)NC1=O)CCCC=CC[C@]1(CCCN1C(C)=O)C(=O)N[C@@H](CC(=O)O)C(=O)N[C@@H](CC(C)(C)C)C(=O)N2 (some centres unmarked)")
33
>>> observed("CCCC[C@@H]1NC(=O)[C@H](C)NC(=O)[C@H](CCC(=O)O)NC(=O)[C@H](CC(=O)O)NC(=O)C2(CCCC=CCCCCCC[C@@](C)(C(=O)N[C@@H](Cc3ccccc3)C(=O)N[C@@H](Cc3csc4ccccc34)C(=O)N[C@@H](CCC(N)=O)C(N)=O)NC(=O)[C@H](CCC(N)=O)NC(=O)[C@H](Cc3ccccc3)NC1=O)CCCC=CC[C@]1(CCCN1C(C)=O)C(=O)N[C@@H](CC(=O)O)C(=O)N[C@@H]([C@@H](C)CC)C(=O)N2 (some centres unmarked) [I-667]")
585

Values were extracted from patent US20240116985A1.
